tested on: MDA-MB-435; assay: MTT growth inhibition assay, single agent; format: cell-based, human; conditions: Homo sapiens, 24 hours exposure, read-out: Antiproliferative effects IC50s (MTT assay)
pIC50: −log10 of the molar value.
# label = Criterion met if pIC50 >= 5 else Criterion not met

COc1cccc2c1C(=O)c1c(O)c3c(c(O)c1C2=O)C[C@@](O)(C(=O)CO)C[C@@H]3O[C@H]1C[C@H](N)[C@H](O)[C@H](C)O1	Criterion met
CC(=O)O[C@@]12CO[C@@H]1C[C@H](O)[C@@]1(C)C(=O)[C@H](O)C3=C(C)[C@@H](OC(=O)[C@H](O)[C@@H](NC(=O)OC(C)(C)C)c4ccccc4)C[C@@](O)([C@@H](OC(=O)c4ccccc4)[C@H]21)C3(C)C	Criterion met
Nc1ccn([C@@H]2O[C@H](CO)[C@@H](O)C2(F)F)c(=O)n1	Criterion met

Then there is this compound:
[ask] hey, is pIC50 for this one >= 5? Nc1ccn([C@@H]2O[C@H](CO)[C@H](O)[C@@H]2O)c(=O)n1
[reply] Criterion not met

* * *

system: NSCLC cell line H1299; assay: CNDAC combinations (alamar blue, Calcusyn Combination Index); format: cell-based, human; conditions: named agent in combination with CNDAC; H1299; simultaneous treatment 72 h
measure: Combination Index at ED90, Concomitant

Consider the worked cases shown below.
Nc1ccn([C@@H]2O[C@H](CO)[C@@H](O)C2(F)F)c(=O)n1	6.11
N.N.[Cl][Pt][Cl] [Cisplatin, cis-diamminedichlorplatinum (II)]	7.56

I'm hoping you can list Combination Index at ED90, Concomitant for every compound here, please.
1. COc1cccc2c1C(=O)c1c(O)c3c(c(O)c1C2=O)C[C@@](O)(C(=O)CO)C[C@@H]3O[C@H]1C[C@H](N)[C@H](O)[C@H](C)O1
2. CCC1=C[C@@H]2CN(C1)Cc1c([nH]c3ccccc13)[C@@](C(=O)OC)(c1cc3c(cc1OC)N(C)[C@H]1[C@@](O)(C(=O)OC)[C@H](OC(C)=O)[C@]4(CC)C=CCN5CC[C@]31[C@@H]54)C2
3. CC(=O)O[C@@]12CO[C@@H]1C[C@H](O)[C@@]1(C)C(=O)[C@H](O)C3=C(C)[C@@H](OC(=O)[C@H](O)[C@@H](NC(=O)OC(C)(C)C)c4ccccc4)C[C@@](O)([C@@H](OC(=O)c4ccccc4)[C@H]21)C3(C)C

[reply]
[2.75, 2.25, 2.01]

* * *

Give measured pIC50 for each item. Keep answers brief.
system: MCF7; assay: MTT growth inhibition assay, single agent; type: cell-based, human; conditions: Homo sapiens, 24 hours exposure, read-out: Antiproliferative effects IC50s (MTT assay)
Numbers only, as −log10 of the molar value.

O=c1[nH]cc(F)c(=O)[nH]1	5.00
CC(=O)O[C@@]12CO[C@@H]1C[C@H](O)[C@@]1(C)C(=O)[C@H](O)C3=C(C)[C@@H](OC(=O)[C@H](O)[C@@H](NC(=O)OC(C)(C)C)c4ccccc4)C[C@@](O)([C@@H](OC(=O)c4ccccc4)[C@H]21)C3(C)C	8.00
Nc1ccn([C@@H]2O[C@H](CO)[C@@H](O)C2(F)F)c(=O)n1	8.00

[ask] Any idea what pIC50 was measured for COc1cccc2c1C(=O)c1c(O)c3c(c(O)c1C2=O)C[C@@](O)(C(=O)CO)C[C@@H]3O[C@H]1C[C@H](N)[C@H](O)[C@H](C)O1 ?
[reply] 6.15

All figures here come from patent US20090274773A1.
